- TEST NAME: PK profile in male CD1 mice
- Format: in vivo
- EXPERIMENTAL PARAMETERS: mouse, po, 30 mg/kg, single dose, mean plasma
OBSERVATION TYPE: AUC(0-t)
Number first, unit second.

## Task Quote AUC(0-t) reported for C=CC(=O)N1CCN(c2cc(OCC34CCCN3CCC4)nc3cc(-c4cccc5cccc(Cl)c45)cnc23)C[C@@H]1CC#N please.
## Result 1500 ng·h/mL

* * *

- TEST NAME: PK profile in male CD1 mice
- Assay type: in vivo
- EXPERIMENTAL PARAMETERS: mouse, po, 30 mg/kg, single dose, mean plasma
OBSERVATION TYPE: Tmax (h)
Expressed in h, but write only the number.

## Task Quote Tmax reported for C=CC(=O)N1CCN(c2cc(OCC34CCCN3CCC4)nc3cc(-c4cccc5cccc(Cl)c45)cnc23)C[C@@H]1CC#N please.
## Result 1
